meta.source: PubChem BioAssay AID1645865

# target.or.test.system: Ubiquitin carboxyl-terminal hydrolase 30 (Homo sapiens) (UniProt Q70CQ3)
# Sequence (Q70CQ3 whole entry, looked up): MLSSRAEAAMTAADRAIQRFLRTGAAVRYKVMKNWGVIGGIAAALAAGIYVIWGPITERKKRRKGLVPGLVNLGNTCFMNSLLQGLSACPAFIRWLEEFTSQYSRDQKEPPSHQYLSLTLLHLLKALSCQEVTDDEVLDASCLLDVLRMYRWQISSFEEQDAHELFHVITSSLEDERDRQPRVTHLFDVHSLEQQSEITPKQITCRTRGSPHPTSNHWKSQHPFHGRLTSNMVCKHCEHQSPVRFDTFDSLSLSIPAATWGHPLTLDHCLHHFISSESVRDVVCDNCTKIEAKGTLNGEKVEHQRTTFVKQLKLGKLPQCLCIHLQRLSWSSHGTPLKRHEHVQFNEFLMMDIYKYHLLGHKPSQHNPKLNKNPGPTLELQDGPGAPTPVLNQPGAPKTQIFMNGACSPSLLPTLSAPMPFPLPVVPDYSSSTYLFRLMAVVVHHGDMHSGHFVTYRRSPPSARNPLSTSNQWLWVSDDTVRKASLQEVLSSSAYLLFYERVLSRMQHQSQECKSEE
# assay.protocol: inhibitors of ubiquitin-specific protease 30 deubiquitylating enzyme, concentration dependence, in vitro biochemical, validation of primary hits (AID 1645865)
# stated.conditions: purified USP30, Ub-rhodamine cleavage, fluorescence, 2 h
Active and inactive are the calls of the source.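 The calls were made as follows: active = maximal inhibition of the USP30 enzyme reaching 30% or more across the dose series; inactive = the rest.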
// classify into active, inactive

The following molecules have reported results that may help.
Cc1ccc(NC(=O)c2sc3ncn(CC(=O)N4CCN(c5ccccn5)CC4)c(=O)c3c2C)c(Br)c1: active
O=C(/C=C/c1cnc2ccccc2c1)NCc1ccccc1: active
COc1ccc(NS(=O)(=O)c2ccc(NC(=O)Nc3ccc(Cl)cc3)cc2)cc1: active
CS(=O)(=O)N1CCCc2cc(C(=O)Nc3ccc4c(c3)OCO4)ccc21: inactive

Now for a further molecule.
Req: Per the assay record, what outcome was assigned to N#C/C(=C\c1ccc(-c2cc(Cl)ccc2Cl)o1)c1nnc2n1CCCCC2 ?
Resp: inactive
